experimentalTarget: Cytochrome P450 2C19 (Homo sapiens)
assayInfo: NVS_ADME_hCYP2C19: NovaScreen (NVS) CYP450-related Enzyme Activity (ADME) Assay for human CYP2C19 (AID 2283113);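 further: potency for inhibition seen as loss of fluorescent signal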
Records with an inconclusive call do not appear. Active and inactive are the calls of the source. How the source made its calls: active means hit-call score of the fitted dose curve at least 0.9, where 1 is the maximum; inconclusive means response in the unintended direction; inactive means score below 0.9.
parameterMeasured: AC50

Worked set:
CCOP(=O)(OCC)Oc1nc(Cl)c(Cl)cc1Cl: 4.09 µM (active)
CC1(C)C(C=C(Cl)Cl)C1C(=O)OC(C#N)c1cccc(Oc2ccccc2)c1 (configuration not stated): 7.55 µM (active)
CCCCC(C#N)(Cn1cncn1)c1ccc(Cl)cc1 (configuration not stated): 0.634 µM (active)
COC(=O)NC(=S)Nc1ccccc1NC(=S)NC(=O)OC: 10 µM (active)
CC(C)Oc1cccc(NC(=O)c2ccccc2C(F)(F)F)c1: 4.9 µM (active)

GET /values?item= `CC(C)NC(=O)N1CC(=O)N(c2cc(Cl)cc(Cl)c2)C1=O` &system= Cytochrome P450 2C19 (Homo sapiens) returns AC50: 2.06 µM (active)

GET /values?item= CC(C)=CC1C(C(=O)OCc2coc(Cc3ccccc3)c2)C1(C)C (configuration not stated) &system= Cytochrome P450 2C19 (Homo sapiens) returns AC50: 8.7 µM (active)

GET /values?item= CCOc1cc(C(C)(C)C)ccc1C1COC(c2c(F)cccc2F)=N1 (configuration not stated) &system= Cytochrome P450 2C19 (Homo sapiens) returns AC50: 7.62 µM (active)

---

Read-out: Thrombomodulin, THBD (gene 7056)
assayInfo: BSK_CASM3C_Thrombomodulin: BioMAP Diversity Plus: CASM3C Assay for Thrombomodulin Biomarker Activity (AID 2283051);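 further: thrombomodulin protein level measured by ELISA 24 h after dosing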
particulars: primary human coronary artery smooth muscle cells; actives raise or lower the signal
Activity calls are given as the source filed them. Rule for the calls: active = hit-call score of the fitted dose curve at least 0.9, where 1 is the maximum; inactive = score below 0.9.
Allowed answers: yes (1) = active, no (0) = inactive

Cc1cnc(C2=NC(C)(C(C)C)C(=O)N2)c(C(=O)O)c1 (stereo not drawn): no (0)
CCCCC(C#N)(Cn1cncn1)c1ccc(Cl)cc1 (stereo not drawn): no (0)
Nc1cnn(-c2ccccc2)c(=O)c1Cl: no (0)
CN=C=S: no (0)
N#Cc1c[nH]cc1-c1cccc2c1OC(F)(F)O2: yes (1)
COP(=S)(OC)SCn1nnc2ccccc2c1=O: no (0)

IN: I'd appreciate the recorded outcome for `COc1cc(OC)nc(NC(=O)NS(=O)(=O)c2ncccc2OCC(F)(F)F)n1` from this test.
OUT: no (0)

IN: I'd appreciate the recorded outcome for CC1(C)C(C(=O)OC(C#N)c2cccc(Oc3ccccc3)c2)C1(C)C (stereo not drawn) from this test.
OUT: yes (1)

---

assayInfo: CCTE_Shafer_MEA_dev_firing_rate_mean: CCTE's Neural Network Formation Assay for Mean Firing Rate, Shafer Lab (AID 2284031);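 further: AUC of well mean spike rate recorded on DIV 5 7 9 and 12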
Activity calls are given as the source filed them. The calls were made as follows: active = hit-call score of the fitted dose curve at least 0.9, where 1 is the maximum; inactive = score below 0.9.
Allowed answers: TRUE (active), FALSE (inactive)

Below, 5 compounds whose answers are already recorded.
CCN(CC)c1nc(C)cc(OP(=S)(OC)OC)n1: FALSE
CN/C(=N\[N+](=O)[O-])NCc1cnc(Cl)s1: FALSE
CCCN(CC)CC1COC2(CCC(C(C)(C)C)CC2)O1 (stereo unspecified): TRUE
COC(=O)N(C(=O)N1CO[C@@]2(C(=O)OC)Cc3cc(Cl)ccc3C2=N1)c1ccc(OC(F)(F)F)cc1: FALSE
COP(=O)(OC)O/C(C)=C/C(=O)N(C)C: FALSE

IN: I'd appreciate the recorded outcome for `CCNC(=O)NC(=O)C(C#N)=NOC` from this test.
OUT: FALSE

IN: I'd appreciate the recorded outcome for `CNC(=O)Oc1cccc2ccccc12` from this test.
OUT: FALSE

IN: I'd appreciate the recorded outcome for CC1(C)C(C(=O)OC(C#N)c2cccc(Oc3ccccc3)c2)C1(C)C (stereo unspecified) from this test.
OUT: FALSE

---

assayInfo: BSK_SAg_SRB: Viability Assessment in the BioMAP Diversity Plus: SAg Assay (AID 2283096);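 further: cells read one day after compound addition; hits may be either gain or loss of signal compared with DMSO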
particulars: primary human HUVEC with PBMC
Experimental: BSK_SAg is a cell-based, multiplexed-readout assay that uses umbilical vein endothelium and peripheral blood mononuclear cells, a human vascular primary cell co-culture, with measurements taken at 24 hours after chemical dosing in a 96-well plate.BSK_SAg_SRB is an assay component measured in the BSK_SAg assay. […] This assay endpoint, BSK_SAg_SRB, was analyzed with bidirectional fitting relative to DMSO as the negative control and baseline of activity. […]
Activity calls are given as the source filed them. How the source made its calls: active means hit-call score of the fitted dose curve at least 0.9, where 1 is the maximum; inactive means score below 0.9.
parameterMeasured: AC50

Worked set:
CCCCC(C#N)(Cn1cncn1)c1ccc(Cl)cc1 (stereo unspecified): inactive
CS(=O)(=O)c1ccc(C(=O)C2C(=O)CCCC2=O)c([N+](=O)[O-])c1: inactive
CC(C)=CC1C(C(=O)OCc2coc(Cc3ccccc3)c2)C1(C)C (stereo unspecified): inactive
CC(C)Nc1nc(Cl)nc(NC(C)C)n1: inactive
CSC(=O)c1c(C(F)F)nc(C(F)(F)F)c(C(=O)SC)c1CC(C)C: 14.6 µM (active)

Sample COCC(C)N(C(=O)CCl)c1c(C)csc1C (stereo unspecified) ; AC50 observed: inactive

Sample `N#CN=C1SCCN1Cc1ccc(Cl)nc1` ; AC50 observed: inactive

Sample `CCN(CC)c1nc(C)cc(OP(=S)(OC)OC)n1` ; AC50 observed: inactive

Sample `COC(=O)c1c(C(F)F)nc(C(F)(F)F)c(C2=NCCS2)c1CC(C)C` ; AC50 observed: 32.5 µM (active)

Sample `CCOP(=S)(OCC)Oc1nc(Cl)n(C(C)C)n1` ; AC50 observed: inactive

Sample `CCOP(=O)(OCC)Oc1nc(Cl)c(Cl)cc1Cl` ; AC50 observed: 20 µM (active)

Sample `CNC(=O)Oc1cccc2ccccc12` ; AC50 observed: inactive

---

assayInfo: CCTE_Shafer_MEA_acute_per_network_burst_electrodes_number_mean: CCTE's Neural Acute Assay for Mean Number of Electrodes in a Network Burst, Shafer Lab (AID 2284021);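 further: curves fitted for decreases only so hits reduce electrodes per burst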
The source made the active and inactive calls. How the source made its calls: active means hit-call score of the fitted dose curve at least 0.9, where 1 is the maximum; inactive means score below 0.9.
parameterMeasured: AC50

Cn1c(-c2ccccc2)cc(-c2ccccc2)[n+]1C: 20 µM (active)
CCCN(CC)CC1COC2(CCC(C(C)(C)C)CC2)O1 (stereo unspecified): inactive
CCOc1cc(C(C)(C)C)ccc1C1COC(c2c(F)cccc2F)=N1 (stereo unspecified): 4.3 µM (active)
CC(C)=CC1C(C(=O)OCc2coc(Cc3ccccc3)c2)C1(C)C (stereo unspecified): 8.62 µM (active)
Cc1ccc(N=CN(C)C=Nc2ccc(C)cc2C)c(C)c1: inactive

Sample `CNC(=O)Oc1cccc2ccccc12` ; AC50 observed: inactive

Sample `Clc1nc(Cl)nc(Nc2ccccc2Cl)n1` ; AC50 observed: inactive

Sample CC1(C)C(C=C(Cl)Cl)C1C(=O)OC(C#N)c1cccc(Oc2ccccc2)c1 (stereo unspecified) ; AC50 observed: 0.622 µM (active)

Sample `O=C(Nc1ccccc1-c1ccc(Cl)cc1)c1cccnc1Cl` ; AC50 observed: inactive

Sample `C=C(C)CN(CC)c1c([N+](=O)[O-])cc(C(F)(F)F)cc1[N+](=O)[O-]` ; AC50 observed: inactive

Sample `OC(c1ccc(Cl)cc1)(c1ccc(Cl)cc1)C(Cl)(Cl)Cl` ; AC50 observed: 20 µM (active)

---

experimentalTarget: Nuclear receptor subfamily 1 group I member 2 (Mus musculus)
assayInfo: ATG_mPXR_XSP2: Attagene TRANS-FACTORIAL Multi-Species (XSP1) HepG2 Assay for mouse Pregnane X Receptor (PXR) (AID 2283831)
Results filed as inconclusive are left out. The source made the active and inactive calls. Rule for the calls: active = hit-call score of the fitted dose curve at least 0.9, where 1 is the maximum; inconclusive = response in the unintended direction; inactive = score below 0.9.
Allowed answers: true for active, false for inactive

Below, 5 molecules whose answers are already recorded.
Cc1c(COC(=O)[C@@H]2[C@H](/C=C(\Cl)C(F)(F)F)C2(C)C)cccc1-c1ccccc1: true
CC1(C)C(C=C(Cl)Cl)C1C(=O)OC(C#N)c1cccc(Oc2ccccc2)c1 (stereo unspecified): true
CCN(CC)C(=O)C(C)Oc1cccc2ccccc12 (stereo unspecified): true
COP(=S)(OC)Oc1ccc([N+](=O)[O-])c(C)c1: true
CC(C)NC(=O)N1CC(=O)N(c2cc(Cl)cc(Cl)c2)C1=O: true

Now, please, on to the next molecule.
IN: I'd appreciate the recorded outcome for `COP(=S)(OC)SCn1nnc2ccccc2c1=O` from this test.
OUT: false

---

assayInfo: CCTE_Shafer_MEA_acute_per_burst_spike_number_mean: CCTE's Neural Acute Assay for Average Number of Spikes Per Burst, Shafer Lab (AID 2284015);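 further: hits are decreases in mean spikes per burst versus baseline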
Method: CCTE_Shafer_MEA_acute assay is conducted using Axion Biosystems 48 well microelectrode array (MEA) plates and Maestro recording system. Each well of the MEA plate contains a grid of 16 microelectrodes embedded in the culture surface. Electrically active cells, such as neurons, can be cultured over the electrodes, and electrical activity in these cells can be recorded extracellularly. […]
Calls of active or inactive are those of the source. Rule for the calls: active = hit-call score of the fitted dose curve at least 0.9, where 1 is the maximum; inactive = score below 0.9.
Allowed answers: 1 (active), -1 (inactive)

Below, 5 compounds whose answers are already recorded.
CCOc1cc(C(C)(C)C)ccc1C1COC(c2c(F)cccc2F)=N1 (stereo not drawn): -1
Clc1nc(Cl)nc(Nc2ccccc2Cl)n1: -1
CNC(=O)Oc1cccc2ccccc12: -1
CCCC(=NOCC)C1=C(O)CC(CC(C)SCC)CC1=O (stereo not drawn): 1
Cc1ccc(N=CN(C)C=Nc2ccc(C)cc2C)c(C)c1: 1

IN: I'd appreciate the recorded outcome for `Cc1c(COC(=O)[C@@H]2[C@H](/C=C(\Cl)C(F)(F)F)C2(C)C)cccc1-c1ccccc1` from this test.
OUT: -1

IN: I'd appreciate the recorded outcome for CC1(C)CCC(=Cc2ccc(Cl)cc2)C1(O)Cn1cncn1 (stereo not drawn) from this test.
OUT: -1

IN: I'd appreciate the recorded outcome for CC1(C)C(C=C(Cl)Cl)C1C(=O)OC(C#N)c1cccc(Oc2ccccc2)c1 (stereo not drawn) from this test.
OUT: -1

Hey, just so you know, these numbers are from PubChem BioAssay (EPA / NIEHS).
